Test system: A2780cisR cisplatin-resistant ovarian carcinoma cells
ASSAY PROCEDURE: MTT cytotoxicity (chemosensitivity) assay, 96 h
Type: cell-based, human
TEST SETTINGS: IC50 PNT-2 divided by IC50 A2780cisR; * = minimum SI value
ASSAY METRIC: Selectivity Index (SI), A2780cisR compared to PNT-2

MOLECULE	REL	OBSERVED
[NH2][Pt]([NH2])([Cl])[Cl] [CDDP, cisplatin, reference compound]	=	0.6
N.N.O=C([O-])C1(C(=O)[O-])CCC1.[Pt+2] [CARB, carboplatin, reference compound]	>	0.3
Nc1ccccc1NC(=O)c1cccc(C(=O)Nc2ccccc2N)n1	>	1.6
O=C1[O][Pt]2([NH][C@@H]3CCCC[C@H]3[NH]2)[O]C1=O [OXA, oxaliplatin, reference compound]	=	0.6
